Origin of values: patent US4503043A

Molecular target: guinea pig serum ACE (angiotensin converting enzyme) (Cavia porcellus, UniProt H0UWL7)
Construct: ACE from guinea pig serum
Sequence (H0UWL7 33-1302): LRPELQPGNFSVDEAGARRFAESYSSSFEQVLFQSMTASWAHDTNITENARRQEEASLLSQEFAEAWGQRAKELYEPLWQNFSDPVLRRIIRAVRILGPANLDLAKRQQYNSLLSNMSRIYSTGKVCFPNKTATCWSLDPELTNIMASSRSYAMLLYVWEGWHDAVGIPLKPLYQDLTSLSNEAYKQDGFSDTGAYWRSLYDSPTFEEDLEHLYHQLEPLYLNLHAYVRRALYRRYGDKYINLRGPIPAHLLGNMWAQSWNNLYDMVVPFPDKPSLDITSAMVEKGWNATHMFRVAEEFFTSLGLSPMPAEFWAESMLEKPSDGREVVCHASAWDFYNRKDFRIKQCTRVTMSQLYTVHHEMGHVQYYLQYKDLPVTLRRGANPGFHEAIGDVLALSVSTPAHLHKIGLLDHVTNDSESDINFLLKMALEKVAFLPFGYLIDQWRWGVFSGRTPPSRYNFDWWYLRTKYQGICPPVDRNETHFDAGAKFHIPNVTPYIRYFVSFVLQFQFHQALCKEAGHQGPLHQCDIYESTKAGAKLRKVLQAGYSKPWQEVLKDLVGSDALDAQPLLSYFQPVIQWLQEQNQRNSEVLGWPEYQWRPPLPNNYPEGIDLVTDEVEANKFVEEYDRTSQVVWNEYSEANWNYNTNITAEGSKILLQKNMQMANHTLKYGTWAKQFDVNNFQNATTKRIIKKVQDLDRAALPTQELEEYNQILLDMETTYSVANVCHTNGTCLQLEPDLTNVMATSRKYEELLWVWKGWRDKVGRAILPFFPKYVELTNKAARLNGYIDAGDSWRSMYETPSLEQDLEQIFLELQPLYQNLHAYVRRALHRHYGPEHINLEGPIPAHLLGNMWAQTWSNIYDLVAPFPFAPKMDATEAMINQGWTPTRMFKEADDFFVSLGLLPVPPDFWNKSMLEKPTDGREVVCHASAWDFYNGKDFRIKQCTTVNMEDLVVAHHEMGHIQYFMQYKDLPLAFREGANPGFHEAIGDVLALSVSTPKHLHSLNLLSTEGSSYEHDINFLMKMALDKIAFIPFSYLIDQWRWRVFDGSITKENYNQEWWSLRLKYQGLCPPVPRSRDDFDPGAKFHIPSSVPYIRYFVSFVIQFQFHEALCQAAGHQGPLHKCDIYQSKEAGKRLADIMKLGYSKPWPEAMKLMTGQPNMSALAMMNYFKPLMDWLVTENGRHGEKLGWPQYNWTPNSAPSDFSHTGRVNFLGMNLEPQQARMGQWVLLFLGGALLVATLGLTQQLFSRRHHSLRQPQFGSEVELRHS
Assay: In vitro ACE Assay (angiotensin converting enzyme inhibitory activity)
Details: 10 min preincubation, substrate 3H-hippuryl-glycylglycine, 60 min at 37° C.
Experimental: In vitro ACE Assay: Angiotensin converting enzyme (ACE) inhibitory activity is determined by assaying guinea pig serum ACE in the presence and absence of the test compound. ACE from guinea pig serum and the test compounds are preincubated for 10 minutes before the addition of the labelled substrate ^3 H-hippuryl-glycylglycine. […] The ^3 H-hippuric acid is then extracted with ethyl acetate and the ACE inhibition of a given sample calculated on the basis of the ^3 H-hippuric acid generated.
pIC50: −log10 of the molar value. Where a name gives a salt, the structure may show the parent alone.

Molecule	pIC50
CC(=O)SCCC(=O)N1C(=O)C2CCCCC2C1C(=O)O (centres unmarked) [Example 5]	6.18
CC(NC(CCc1ccccc1)C(=O)O)C(=O)N1CC2CCCCC2C1C(=O)O (centres unmarked) [Example 13]	8.59
CC(CS)C(=O)N1C(=O)C2CCCCC2C1C(=O)O (centres unmarked) [Example 8]	7.85
O=C(O)C1C2CCCCC2CN1C(=O)CCS (centres unmarked) [Example 2]	7.62
CCOC(=O)[C@H](CCc1ccccc1)N[C@@H](C)C(=O)N1C(=O)C2CCCCC2C1C(=O)O (some centres unmarked) [Example 14, hydrochloride]	6.47
CC(CS)C(=O)N1CC2CCCCC2C1C(=O)O (centres unmarked) [Example 4]	7.55
CC(=O)SCC(C)C(=O)N1C(=O)C2CCCCC2C1C(=O)O (centres unmarked) [Example 7]	6.55
O=C(O)C1C2CCCCC2C(=O)N1C(=O)CCS (centres unmarked) [Example 6]	7.89
CC(=O)SCCC(=O)N1CC2CCCCC2C1C(=O)O (centres unmarked) [Example 1]	5.92
CCOC(=O)C(CCc1ccccc1)NC(C)C(=O)N1CC2CCCCC2C1C(=O)O (centres unmarked) [Example 12, hydrochloride]	6.77
CC(=O)SCC(C)C(=O)N1CC2CCCCC2C1C(=O)O (centres unmarked) [Example 3]	6.38
